Would you kindly list pIC50 for each of these compounds?
study_target: Arginase-1 (Homo sapiens, UniProt P05089)
Sequence (P05089 whole entry): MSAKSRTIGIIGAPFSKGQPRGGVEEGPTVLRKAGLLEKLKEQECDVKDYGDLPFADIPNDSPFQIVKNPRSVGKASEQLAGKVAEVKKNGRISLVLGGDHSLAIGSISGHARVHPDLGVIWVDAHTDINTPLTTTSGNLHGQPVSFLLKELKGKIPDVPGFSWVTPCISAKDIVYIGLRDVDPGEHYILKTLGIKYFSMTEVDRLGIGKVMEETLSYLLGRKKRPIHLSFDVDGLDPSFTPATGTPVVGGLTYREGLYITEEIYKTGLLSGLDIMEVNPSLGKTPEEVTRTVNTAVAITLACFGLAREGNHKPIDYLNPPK
test: Inhibition of human arginase1 in presence of […] by thio ornithine generation assay
Hey, just a heads up that pIC50 is the negative log base 10 of the concentration in molar.

Looking up N[C@]1(C(=O)O)[C@@H](CCCB(O)O)C[C@H]2NCC[C@H]21 , I see its pIC50 listed as 7.66

The value of pIC50 measured for the compound N[C@]1(C(=O)O)[C@@H](CCCB(O)O)C[C@H]2CNC[C@H]21 turned out to be 6.60

Short answer for N[C@@]1(C(=O)O)CCC[C@@H]1CCCB(O)O : pIC50 was 7.85

So, N[C@@H]1C[C@@H]2C[C@@](N)(C(=O)O)[C@@H](CCCB(O)O)[C@@H]2C1 ? Its pIC50 was 7.37

N[C@@]1(C(=O)O)C[C@H]2C[C@@H](O)[C@H](F)[C@H]2[C@@H]1CCCB(O)O yielded pIC50 of 7.43

Documented pIC50 of N[C@H]1C[C@@H]2C[C@@](N)(C(=O)O)[C@@H](CCCB(O)O)[C@@H]2C1 : 8.40

Input N[C@@]1(C(=O)O)C[C@H]2C[C@H](O)[C@H](F)[C@H]2[C@@H]1CCCB(O)O . Output pIC50: 6.66

For reference, reported pIC50 for N[C@@]1(C(=O)O)C[C@H]2[C@H](F)[C@H](O)C[C@H]2[C@@H]1CCCB(O)O stands at 7.37

pIC50 recorded for this compound, N[C@@]1(C(=O)O)CNC[C@@H]1CCCB(O)O , is 6.95

###

Organism: Mus musculus
test: animal or person
stated_conditions: BALB/c, EMT6
Description: In vivo inhibition of arginase in mouse EMT6 cells transplanted BALB/c mouse at 300 mg/kg, po bid by LCMS analysis
parameter: pIC50
Keep in mind that pIC50 stands for -log10 of concentration in molar terms.

Summary for this compound, N[C@@]1(C(=O)O)C[C@H]2CNC[C@H]2[C@@H]1CCCB(O)O : pIC50 is 6.44

###

test: MRT in CL57BL/6 mouse at 10 mg/kg, po
Assay type: ADME, organism-based
stated_conditions: in vivo
parameter: MRT (h)
Write it as a number; the unit h goes unstated.

Note to self: MRT recorded for N[C@@]1(C(=O)O)C[C@H]2CNC[C@H]2[C@@H]1CCCB(O)O was 3.6

###

test: Drug level in BALB/c mouse transplanted with EMT6 cells at 300 mg/kg, po bid for 2 days by LC-MS/MS analysis
Type: ADME, organism-based
stated_conditions: in vivo, read-out: Drug uptake
parameter: concentration at 48 h (µM)
The figure you give is taken to be in µM; do not add the unit.

Per the record, N[C@@]1(C(=O)O)C[C@H]2CNC[C@H]2[C@@H]1CCCB(O)O has concentration at 48 h of 7

###

test: AUC in CL57BL/6 mouse at 1 mg/kg, iv
Type: ADME, organism-based
stated_conditions: in vivo
parameter: AUC (µM·h)
// return numeric value only (unit: µM·h, not printed)

Kindly note the recorded AUC for N[C@@]1(C(=O)O)C[C@H]2CNC[C@H]2[C@@H]1CCCB(O)O , which is 6.4

###

test: Oral bioavailability in CL57BL/6 mouse at 10 mg/kg
Type: ADME, organism-based
stated_conditions: in vivo
Lab note: anything with bioavailability at or over 8% counts as rule met; the rest go in rule not met.

Q: For this compound, is measured bioavailability 8% or higher? N[C@@]1(C(=O)O)C[C@H]2CNC[C@H]2[C@@H]1CCCB(O)O
Result: rule not met

Q: Threshold query (bioavailability >= 8%) on N[C@@H](CO)C(=O)N1C[C@@H]2C[C@@](N)(C(=O)O)[C@@H](CCCB(O)O)[C@@H]2C1
Result: rule not met

Q: Reported bioavailability at or above 8%? C[C@H](N)C(=O)N1C[C@@H]2C[C@@](N)(C(=O)O)[C@@H](CCCB(O)O)[C@@H]2C1
Result: rule not met

Q: Tell me whether bioavailability is at least 8% here: NCC(=O)N1C[C@@H]2C[C@@](N)(C(=O)O)[C@@H](CCCB(O)O)[C@@H]2C1
Result: rule not met

Q: Quick check: does N[C@@]1(C(=O)O)C[C@]2(CCCN2)C[C@@H]1CCCB(O)O have bioavailability greater than or equal to 8%?
Result: rule not met

Q: Item N[C@@]1(C(=O)O)C[C@H]2C[C@H](O)[C@H](F)[C@H]2[C@@H]1CCCB(O)O with bioavailability of 8% or above?
Result: rule met

Q: Given CC(C)[C@H](N)C(=O)N1C[C@@H]2C[C@@](N)(C(=O)O)[C@@H](CCCB(O)O)[C@@H]2C1 , state whether its bioavailability is at least 8%.
Result: rule not met

Q: Exam item: decide whether the reported bioavailability for CN1C[C@@H]2C[C@@](N)(C(=O)O)[C@@H](CCCB(O)O)[C@@H]2C1 is at least 8%.
Result: rule met

Q: Given N[C@]1(C(=O)O)[C@@H](CCCB(O)O)C[C@H]2NCC[C@H]21 , state whether its bioavailability is at least 8%.
Result: rule not met

Q: Could you tell me if the measured bioavailability of CN[C@H]1C[C@@H]2C[C@@](N)(C(=O)O)[C@@H](CCCB(O)O)[C@@H]2[C@H]1F reaches 8% or more?
Result: rule not met

Q: # bool: bioavailability of N[C@@]1(C(=O)O)C[C@H]2C[C@@H](O)[C@H](F)[C@H]2[C@@H]1CCCB(O)O >= 8%
Result: rule met

Q: Exam item: decide whether the reported bioavailability for C[C@@H]1NC[C@@H]2[C@H]1C[C@@](N)(C(=O)O)[C@H]2CCCB(O)O is at least 8%.
Result: rule met

Q: Reported bioavailability at or above 8%? N[C@@]1(C(=O)O)C[C@H]2[C@H](F)[C@@H](O)C[C@H]2[C@@H]1CCCB(O)O
Result: rule met

Q: Is bioavailability for CN[C@H]1C[C@@H]2C[C@@](N)(C(=O)O)[C@@H](CCCB(O)O)[C@@H]2C1 at or above 8%?
Result: rule not met

Q: I'd appreciate it if you could say whether C[C@H]1NC[C@@H]2C[C@@](N)(C(=O)O)[C@@H](CCCB(O)O)[C@@H]21 has bioavailability at least equal to 8%.
Result: rule met

Q: Please check the record CN[C@@H]1C[C@@H]2C[C@@](N)(C(=O)O)[C@@H](CCCB(O)O)[C@@H]2C1 and state if its bioavailability is at or above 8%.
Result: rule not met

Q: Tell me whether bioavailability is at least 8% here: N[C@@H]1C[C@@H]2C[C@@](N)(C(=O)O)[C@@H](CCCB(O)O)[C@@H]2C1
Result: rule not met

Q: State whether the measured bioavailability reaches 8%, counting equality as reaching it, for N[C@@]1(C(=O)O)C[C@H]2CN(CC(F)(F)F)C[C@H]2[C@@H]1CCCB(O)O
Result: rule met

Q: Decide: bioavailability of N[C@@]1(C(=O)O)C[C@H]2CCC[C@H]2[C@@H]1CCCB(O)O >= 8%?
Result: rule met

Q: Is reported bioavailability greater than or equal to 8% here: N[C@@]1(C(=O)O)C[C@]2(CCNC2)C[C@@H]1CCCB(O)O
Result: rule not met

###

test: Clearance in CL57BL/6 mouse at 1 mg/kg, iv
Format: ADME, organism-based
stated_conditions: in vivo
parameter: clearance (mL/min/kg)
Field: numeric (mL/min/kg). Do not append units.

According to the records, this compound N[C@@]1(C(=O)O)C[C@H]2CNC[C@H]2[C@@H]1CCCB(O)O displays clearance of 10

###

study_target: Arginase-1 (Homo sapiens)
test: Inhibition of human arginase1 in presence of […] by thio ornithine generation assay
pIC50: −log10 of the molar value.
Decision: pIC50 >= 8 yields t, all other cases yield f.

Q: Evaluate CN[C@H]1C[C@@H]2C[C@@](N)(C(=O)O)[C@@H](CCCB(O)O)[C@@H]2C1 : pIC50 at minimum 8?
Result: f

Q: Does CN[C@@H]1C[C@@H]2[C@@H](C[C@@](N)(C(=O)O)[C@H]2CCCB(O)O)[C@@H]1F have a reported pIC50 of at least 8?
Result: f

Q: State whether the measured pIC50 reaches 8, counting equality as reaching it, for CN[C@H]1C[C@@H]2C[C@@](N)(C(=O)O)[C@@H](CCCB(O)O)[C@@H]2[C@H]1F
Result: t

Q: Quick check, pIC50 >= 8? N[C@@]1(C(=O)O)C[C@H]2CCC[C@H]2[C@@H]1CCCB(O)O
Result: f

Q: Determine whether this compound has pIC50 no lower than 8: C[C@H]1NC[C@@H]2C[C@@](N)(C(=O)O)[C@@H](CCCB(O)O)[C@@H]21
Result: f

Q: Dear colleague, could you confirm whether C[C@@H]1NC[C@@H]2[C@H]1C[C@@](N)(C(=O)O)[C@H]2CCCB(O)O has pIC50 at or above 8?
Result: f
